# Test system: Escherichia coli ATCC 25922
parameter: MIC (µg/mL)
Kindly provide the numeric value in µg/mL only, without the unit symbol.

Case CCN1C(=O)[C@@]2(OC=C2C(=O)c2ccccc2)c2cc(Br)ccc21 , Escherichia coli ATCC 25922, MIC recorded as 300

Continuing:
Short answer on Escherichia coli ATCC 25922 for O=C(C1=C(c2ccccc2)O[C@@]12C(=O)N(Cc1ccccc1)c1c(Br)cccc12)c1ccccc1 , MIC: 160

Escherichia coli ATCC 25922 MIC of CN1C(=O)[C@@]2(OC=C2C=O)c2cccc(Br)c21 is 300

# CN1C(=O)[C@@]2(OC=C2C=O)c2cc(Cl)ccc21 with Escherichia coli ATCC 25922: MIC is 300

* * *

Observed MIC values for Escherichia coli ATCC 25922 are listed in what follows.
Could you give me the number in µg/mL? Just the number is fine.

Some compounds with recorded MIC:
The compound listed as CN1C(=O)[C@@]2(OC(c3ccccc3)=C2C(=O)c2ccccc2)c2cccc(Cl)c21 shows MIC equal to 160

So, O=CC1=CO[C@@]12C(=O)N(Cc1ccccc1)c1c(Cl)cccc12 ? Its MIC was 300

Further cases:
Documented MIC of CCCN1C(=O)[C@@]2(OC(c3ccccc3)=C2C=O)c2cccc(Br)c21 : 300

# compound CN1C(=O)[C@@]2(OC(c3ccccc3)=C2C(=O)c2ccccc2)c2cccc(Br)c21 ; its MIC = 300

Looking up CCN1C(=O)[C@@]2(OC=C2C=O)c2cc(Br)ccc21 , I see its MIC listed as 160

* * *

Recorded measurements of MIC, one per entry
# Tested on: Escherichia coli ATCC 25922
# procedure-summary: Antibacterial activity test, MIC by agar dilution
# Assay type: cell-based
# experimental-context: ATCC25922, MH agar plate two-fold dilution, 25° C. for 18-24 hours, read-out: Minimum Inhibitory Concentrations

Summary for this molecule, CN1C(=O)[C@@]2(OC=C2C=O)c2cccc(Cl)c21 [Compound 4] : MIC is > 600 µg/mL

// sample CN1C(=O)[C@@]2(OC(c3ccccc3)=C2C(=O)c2ccccc2)c2cc(Cl)ccc21 [Compound 7] , its MIC was 300 µg/mL

For this molecule ( CN1C(=O)[C@@]2(OC=C2C=O)c2cc(Br)ccc21 [Compound 1] ), measured MIC is 300 µg/mL

Lookup result for CN1C(=O)[C@@]2(OC(c3ccccc3)=C2C(=O)c2ccccc2)c2cc(Br)ccc21 [Compound 5] ; measured MIC: 160 µg/mL

Entry O=C1Nc2ccccc2C1=O [isatin] , MIC reported as > 600 µg/mL

MIC reading for CCCN1C(=O)[C@@]2(OC(c3ccccc3)=C2C(=O)c2ccccc2)c2cc(Cl)ccc21 [Compound 16] : 160 µg/mL

The molecule identified as CCN1C(=O)[C@@]2(OC(c3ccccc3)=C2C=O)c2cccc(Cl)c21 [Compound 12] registered its MIC at 300 µg/mL

Noted for CCCN1C(=O)[C@@]2(OC=C2C(=O)c2ccccc2)c2cc(Cl)ccc21 [Compound 11] : its MIC reads > 600 µg/mL
